# Tested on: UACC-62
# assayComment: NCI tumour cell line growth inhibition, 48 h
Calls of active or inactive are those of the source. Rule as the data show it: active = GI50 up to about 1.1 µM and inactive = higher.
This listing pairs compounds with measured GI50.
measure: GI50

[[record]]
compound = "O=[N+]([O-])c1ccc(-c2ccc(C3=Nn4c(nnc4-c4ccc(Cl)cc4)SC3)o2)cc1"
valueobserved = "> 100 µM (inactive)"

[[record]]
compound = "N#Cc1ccccc1-c1nc2c3c(c(N)ccc3n1)C(=O)c1ccccc1-2"
valueobserved = "64.6 µM (inactive)"

[[record]]
compound = "Cc1cc2c(cc1Cl)SC(NN(C)C)=NS2(=O)=O"
valueobserved = "> 10 µM (inactive)"

[[record]]
compound = "C=C1CN(Cc2ccccc2)[C@@H]2CCCCC[C@H](C#N)[C@H]12"
valueobserved = "> 100 µM (inactive)"

[[record]]
compound = "CC(=O)Nc1ccc2nc(-c3ccccn3)c(-c3ccccn3)nc2c1"
valueobserved = "> 100 µM (inactive)"

[[record]]
compound = "CC1=C(C(=O)Nc2ccc(Cl)c(C(=O)OC(C)C)c2)SCCO1"
valueobserved = "67.6 µM (inactive)"

[[record]]
compound = "CC(=O)OCCn1c(Cc2ccc(Cl)cc2)nn(C(C)=O)c1=O"
valueobserved = "> 100 µM (inactive)"

[[record]]
compound = "O=S(=O)(O)/C(=N\\c1cccc(Cc2ccccc2)c1)Nc1cccc(Cc2ccccc2)c1"
valueobserved = "16.5 µM (inactive)"

[[record]]
compound = "COc1cc2c(cc1OC)C(Cc1c3ccccc3cc3ccccc13)N(C)CC2 (stereo not given)"
valueobserved = "17.8 µM (inactive)"

[[record]]
compound = "C/C(CC(=O)Nc1cccc(Cl)c1C)=N\\NC(N)=S"
valueobserved = "> 100 µM (inactive)"


###

# System: SNB-75
# assayComment: NCI tumour cell line growth inhibition, 48 h
Active and inactive are the calls of the source. Cut-off read from the data, not from the text of the source: active = GI50 up to about 1.1 µM and inactive = higher.
This listing pairs molecules with measured GI50.
measure: GI50

[[record]]
molecule = "Cc1n[nH]c(=O)n1/N=C/c1ccc([N+](=O)[O-])cc1"
valueobserved = "41.1 µM (inactive)"

[[record]]
molecule = "O=[N+]([O-])c1ccc(-c2ccc(C3=Nn4c(nnc4-c4ccc(Cl)cc4)SC3)o2)cc1"
valueobserved = "25.4 µM (inactive)"

[[record]]
molecule = "Cc1cc2c(c3c1c1ccccc1n3C)C(=O)c1ccccc1C2=O"
valueobserved = "> 100 µM (inactive)"

[[record]]
molecule = "c1csc(-c2nnc(C34CC5CC(CC(C5)C3)C4)o2)c1"
valueobserved = "32.5 µM (inactive)"

[[record]]
molecule = "O=C(CSc1nnc(Cc2ccccc2)o1)Nc1ccccc1"
valueobserved = "> 100 µM (inactive)"

[[record]]
molecule = "COc1ccc(/C=C2\\N=C(SC)N(CN3CCOCC3)C2=O)cc1"
valueobserved = "60.7 µM (inactive)"

[[record]]
molecule = "COC(=O)CC1C(COC(C)=O)OC(n2cc(C)c(=O)[nH]c2=O)C1OC(C)=O (stereo not given)"
valueobserved = "> 100 µM (inactive)"

[[record]]
molecule = "CC1=C2NCN(C)N=C2C(C#N)(C#N)C1(C#N)C#N"
valueobserved = "> 51.1 µM (inactive)"

[[record]]
molecule = "C=CCSS/C=C/C[S+]([O-])CC=C (stereo not given)"
valueobserved = "70 µM (inactive)"

[[record]]
molecule = "O=C1c2cc([N+](=O)[O-])ccc2NC2C(O)c3ccccc3N12 (stereo not given)"
valueobserved = "20.2 µM (inactive)"


###

# Test system: CAKI-1
# assayComment: NCI tumour cell line growth inhibition, 48 h
Active and inactive are the calls of the source. No stated cut-off is given here; in the data, active = GI50 up to about 1.1 µM and inactive = higher.
measure: GI50

[[record]]
compound = "CCOC(=O)C(C)c1nc2cc(F)c(N3CCOCC3)cc2[nH]c1=O (stereo not drawn)"
tgt = "CAKI-1"
measure = "GI50"
valueobserved = "> 100 µM (inactive)"

[[record]]
compound = "CC(C)(C)N1C(=O)c2ccccc2C1(O)C(F)(F)F (stereo not drawn)"
tgt = "CAKI-1"
measure = "GI50"
valueobserved = "> 100 µM (inactive)"

[[record]]
compound = "O=C(Nc1c(O)[nH]c(=S)[nH]c1=O)c1ccccn1"
tgt = "CAKI-1"
measure = "GI50"
valueobserved = "> 100 µM (inactive)"

[[record]]
compound = "CN1C(=O)C(c2c[nH]c3ccccc23)N(C)C(=O)C1c1c[nH]c2ccccc12 (stereo not drawn)"
tgt = "CAKI-1"
measure = "GI50"
valueobserved = "> 100 µM (inactive)"

[[record]]
compound = "COc1ccc(-c2c(C#N)c(NC(=S)NC(=O)c3ccccc3)nc3c2CCCC3)cc1OC"
tgt = "CAKI-1"
measure = "GI50"
valueobserved = "49.5 µM (inactive)"

[[record]]
compound = "Cc1ccc(NC(=O)CC2C(=O)Nc3ccccc3S2(=O)=O)c(C)c1 (stereo not drawn)"
tgt = "CAKI-1"
measure = "GI50"
valueobserved = "8.79 µM (inactive)"

[[record]]
compound = "O=C(/C=C/c1ccsc1)c1ccsc1"
tgt = "CAKI-1"
measure = "GI50"
valueobserved = "20.9 µM (inactive)"

[[record]]
compound = "CCCCCCC(C)c1ccc2c(c1)C(=O)c1nc3ccncc3c(=O)n1-2 (stereo not drawn)"
tgt = "CAKI-1"
measure = "GI50"
valueobserved = "2.54 µM (inactive)"

[[record]]
compound = "C[N+](C)(C)CCC(=O)N1C/C(=C\\c2ccccc2)C(=O)/C(=C/c2ccccc2)C1"
tgt = "CAKI-1"
measure = "GI50"
valueobserved = "6.49 µM (inactive)"

[[record]]
compound = "Cc1cc(OP2(=O)NCc3ncccc3O2)ccc1Cl (stereo not drawn)"
tgt = "CAKI-1"
measure = "GI50"
valueobserved = "> 100 µM (inactive)"

[[record]]
compound = "N#Cc1nc(Cc2ccccc2)oc1N"
tgt = "CAKI-1"
measure = "GI50"
valueobserved = "> 100 µM (inactive)"

[[record]]
compound = "Cc1ccc(/C=C/C(=O)c2sc(-c3nc(C)c(C(=O)/C=C/c4ccc(C)cc4)s3)nc2C)cc1"
tgt = "CAKI-1"
measure = "GI50"
valueobserved = "> 100 µM (inactive)"

[[record]]
compound = "CC1(C)[C@@H]2CC[C@@]1(C)C1(S[S+]1[O-])C21Cc2ccccc2C1 (stereo partly drawn)"
tgt = "CAKI-1"
measure = "GI50"
valueobserved = "20.4 µM (inactive)"

[[record]]
compound = "CNC1NC(=O)c2ccccc2N1Cc1ccc(F)cc1 (stereo not drawn)"
tgt = "CAKI-1"
measure = "GI50"
valueobserved = "> 100 µM (inactive)"

[[record]]
compound = "O=C1[C@H](c2ccccc2)C2c3ccccc3CCN12 (stereo partly drawn)"
tgt = "CAKI-1"
measure = "GI50"
valueobserved = "> 10 µM (inactive)"

[[record]]
compound = "O=C1c2cc([N+](=O)[O-])ccc2NC2C(O)c3ccccc3N12 (stereo not drawn)"
tgt = "CAKI-1"
measure = "GI50"
valueobserved = "21.6 µM (inactive)"

[[record]]
compound = "CC(C)CN1CC(C)C(=O)NC1=O (stereo not drawn)"
tgt = "CAKI-1"
measure = "GI50"
valueobserved = "> 100 µM (inactive)"

[[record]]
compound = "Nc1ccc2c(c1)C(=O)c1ccc(F)cc1-2"
tgt = "CAKI-1"
measure = "GI50"
valueobserved = "> 100 µM (inactive)"

[[record]]
compound = "COC(=O)/C(C#N)=C(\\Nc1ccccc1)N1CCCCC1"
tgt = "CAKI-1"
measure = "GI50"
valueobserved = "> 100 µM (inactive)"

[[record]]
compound = "CCOC(=O)/C=C(/C)Nc1nc2c(c(C(=O)OC)c1C#N)CCCC2"
tgt = "CAKI-1"
measure = "GI50"
valueobserved = "> 100 µM (inactive)"

[[record]]
compound = "CCCC(=O)NC(Nc1cc(C)ccn1)(C(=O)OCC)C(F)(F)F (stereo not drawn)"
tgt = "CAKI-1"
measure = "GI50"
valueobserved = "> 100 µM (inactive)"

[[record]]
compound = "COC(=O)c1cc(C)ccc1CC(Cc1ccc(C)cc1)C(=O)OC (stereo not drawn)"
tgt = "CAKI-1"
measure = "GI50"
valueobserved = "36.6 µM (inactive)"

[[record]]
compound = "N#Cc1ccccc1-c1nc2c3c(c(N)ccc3n1)C(=O)c1ccccc1-2"
tgt = "CAKI-1"
measure = "GI50"
valueobserved = "8.3 µM (inactive)"


###

# System: CAKI-1
# assayComment: NCI tumour cell line growth inhibition, 48 h
Active and inactive are the calls of the source. Cut-off read from the data, not from the text of the source: active = GI50 up to about 1.1 µM and inactive = higher.
Outcomes: 1 (active), 0 (inactive)

[[record]]
compound = "C[C@@H]1C[C@@H](O)[C@]2(O)O[C@@H]3C[C@@]4(C=O)[C@@H](CC[C@@H]5[C@@H]4CC[C@]4(C)[C@@H](C6=CC(=O)OC6)CC[C@]54O)C[C@H]3O[C@@H]2O1 [CALACTIN]"
assignedlabel = 1

[[record]]
compound = "N=C(N)NCCCC(NC(=O)OCCCCCCn1ccc(N)nc1=O)C(=O)O (centres undefined)"
assignedlabel = 0

[[record]]
compound = "COc1ccccc1/C=C1\\CCC(CCN2CCOCC2)C1=O (centres undefined)"
assignedlabel = 0

[[record]]
compound = "CCOC(=O)C1=C(O)C(=O)c2c(OC)ccc(OC)c2C1=O"
assignedlabel = 0

[[record]]
compound = "CC(=O)OCCn1c(Cc2ccc(Cl)cc2)nn(C(C)=O)c1=O"
assignedlabel = 0

[[record]]
compound = "COC(=O)/C=C1/CCC(C)(C(=O)NS(=O)(=O)c2ccc(C)cc2)C1(C)C (centres undefined)"
assignedlabel = 0

[[record]]
compound = "N#CCCN(CCC#N)c1ccc(C(/N=N/c2ccc(Cl)cc2)=N\\c2ccccc2)cc1"
assignedlabel = 0

[[record]]
compound = "CC1=NN(c2cccc(Cl)c2)C2(SCC(=O)N2c2nc3ccccc3s2)/C1=C\\c1ccccc1 (centres undefined)"
assignedlabel = 0

[[record]]
compound = "CCN(CC)c1ccc2cc(C(=O)Nc3ccc(C)cc3)c(=N)oc2c1"
assignedlabel = 0

